- TARGET_DESC: MDM2 (Homo sapiens, UniProt Q00987)
- Sequence (Q00987 whole entry): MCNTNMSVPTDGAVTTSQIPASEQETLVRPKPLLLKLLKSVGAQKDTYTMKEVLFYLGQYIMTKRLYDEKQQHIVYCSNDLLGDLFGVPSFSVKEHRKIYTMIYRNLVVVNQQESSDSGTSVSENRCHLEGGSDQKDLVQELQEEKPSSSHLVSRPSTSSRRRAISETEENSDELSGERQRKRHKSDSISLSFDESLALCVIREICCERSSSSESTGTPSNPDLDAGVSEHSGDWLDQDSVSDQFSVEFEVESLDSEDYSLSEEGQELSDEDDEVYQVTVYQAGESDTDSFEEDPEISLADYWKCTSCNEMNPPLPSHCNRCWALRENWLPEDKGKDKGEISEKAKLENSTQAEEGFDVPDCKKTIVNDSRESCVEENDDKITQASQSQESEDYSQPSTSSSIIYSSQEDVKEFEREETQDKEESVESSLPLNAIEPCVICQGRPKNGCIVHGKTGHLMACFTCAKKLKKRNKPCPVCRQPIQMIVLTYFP
- ASSAY_INFO: MDM2 binding screen: displacement of fluorescent p53 peptide probe FP53 (fluorescence polarization)
- ASSAY_CONDITIONS: Acid 25; replicate; crude macrocycle reactions
- Experimental: We screened Library 2 in 384-microwell plates by dispensing the target protein MDM2 and reporter peptide into the wells containing the macrocycle reactions. The products were screened for displacement of a p53-based fluorescent peptide from human MDM2. […] For each macrocycle, the MDM2 binding was measured once. One fluorescence anisotropy reading was taken with a Tecan Infinite F200 Pro fluorescence plate reader (excitation at 485 nm, emission at 535 nm) at 25 °C. […]
Numbered stars: 1 amine (or outer) side, 2 acyl side, 3 side chain; on linkers, the order of the positions; unused ones are H or OH. Bridge positions count the residues as written; N and C are the ends. Square brackets hold non-standard residues; d marks the D form. Peptide text beside a SMILES is read from it. * marks the point of attachment. ξ: configuration not given here. ξPro(4ξ-NHCOC6H4-4-Cl) = O=C(NC1CNC(C(=O)O)C1)c1ccc(Cl)cc1; Benzoyl(4-Cl) = O=C(c1ccc(Cl)cc1)*; Cysteamide = C(CS[*:3])N[*:1]; Dap = NC[C@H](N)C(=O)O; Mpa = O=C(O)CCS
Reported fraction fluorescent probe displaced, Replicate values follow for various molecules
Respond with the number and no other words.

Check out these entries, answers already filled in.
>  <MOLECULE>
O=C1CCSSCCNC(=O)[C@@H]2CCCN2C(=O)[C@H](CNC(=O)c2ccc(Cl)cc2)NC(=O)[C@H](Cc2c[nH]c3ccccc23)N1 [X W D3 B1 Acid 25] ([Mpa]W[Dap](Benzoyl(4-Cl))P-Cysteamide; disulfide 1-C)

>  <MEASURED_VALUE>
0.30

$$$$
>  <MOLECULE>
O=C1CCSSCCNC(=O)[C@H](CNC(=O)c2ccc(Cl)cc2)NC(=O)[C@H]2CCCN(C2)C(=O)[C@H](Cc2c[nH]c3ccccc23)N1 [X W B4 D3 Acid 25]

>  <MEASURED_VALUE>
0.30

$$$$
>  <MOLECULE>
O=C1CCNC(=O)C2CC(NC(=O)c3ccc(Cl)cc3)CN2C(=O)CCSSCCNC(=O)C(Cc2c[nH]c3ccccc23)N1 (stereo not shown) [X D5 B2 W Acid 25]

>  <MEASURED_VALUE>
0.07

$$$$
>  <MOLECULE>
O=C1CCSSCCNC(=O)[C@H](Cc2ccccc2)NC(=O)[C@@H]2CCCN2C(=O)[C@H](CNC(=O)c2ccc(Cl)cc2)N1 [X D3 B1 F Acid 25] ([Mpa][Dap](Benzoyl(4-Cl))PF-Cysteamide; disulfide 1-C)

>  <MEASURED_VALUE>
0.12

$$$$
>  <MOLECULE>
O=C(NC[C@@H]1NC(=O)[C@H](Cc2c[nH]c3ccccc23)NC(=O)[C@@H]2CCCN2C(=O)CCSSCCNC1=O)c1ccc(Cl)cc1 [X B1 W D3 Acid 25] ([Mpa]PW[Dap](Benzoyl(4-Cl))-Cysteamide; disulfide 1-C)

>  <MEASURED_VALUE>
0.25

$$$$
>  <MOLECULE>
O=C1CCNC(=O)[C@H](CNC(=O)c2ccc(Cl)cc2)NC(=O)[C@H](Cc2ccccc2)NC(=O)CCSSCCN1 [X F D3 B2 Acid 25]

>  <MEASURED_VALUE>
0.0211

$$$$
>  <MOLECULE>
O=C(NC1CC2C(=O)NC(Cc3c[nH]c4ccccc34)C(=O)N3CCCC3C(=O)NCCSSCCC(=O)N2C1)c1ccc(Cl)cc1 (stereo not shown) [X D5 W B1 Acid 25] ([Mpa][ξPro(4ξ-NHCOC6H4-4-Cl)]WP-Cysteamide; disulfide 1-C; configuration not given here)

>  <MEASURED_VALUE>
0.10

$$$$
>  <MOLECULE>
O=C1CCSSCCNC(=O)C2CN(C(=O)c3ccc(Cl)cc3)CCN2C(=O)c2cccc(c2)CNC(=O)C(Cc2c[nH]c3ccccc23)N1 (stereo not shown) [X W B5 D7 Acid 25]

>  <MEASURED_VALUE>
0.12

$$$$
>  <MOLECULE>
O=C1CCSSCCNC(=O)C(Cc2c[nH]c3ccccc23)NC(=O)C2CN(C(=O)c3ccc(Cl)cc3)CCN2C(=O)c2cccc(c2)CN1 (stereo not shown) [X B5 D7 W Acid 25]

>  <MEASURED_VALUE>
0.15

$$$$

Then this molecule:
Task item: May I ask what fraction fluorescent probe displaced, Replicate has been recorded for O=C1NCCSSCCC(=O)N2CCN(C(=O)c3ccc(Cl)cc3)CC2C(=O)NC(Cc2ccccc2)C(=O)NCc2cccc1c2 (stereo not shown) [X D7 F B5 Acid 25] ?
Reply: 0.43
